# System: Bacillus subtilis
# ASSAY NAME: Ratio of ampicillin MIC to compound MIC for drug-sensitive Bacillus subtilis ATCC 6633 by broth microdilution method
# Format: functional
ENDPOINT NAME: Ratio
The response must contain the number and no unit.

Here's what some known entries look like.
| SMILES CODE | Ratio |
| --- | --- |
| Brc1ccc(Nc2nn3c(-c4ccccc4)nnc3s2)cc1 | 16 |
| Clc1ccc(Nc2nn3c(-c4ccccc4Cl)nnc3s2)cc1 | 4 |
| Clc1ccc(Nc2nn3c(-c4ccc(Cl)cc4)nnc3s2)cc1 | 4 |

input: I have this compound here, Clc1ccc(-c2nnc3sc(Nc4ccc(Br)cc4)nn23)cc1 , and I need its recorded Ratio.
output: 8

input: Tell me the measured Ratio of Clc1ccc(Nc2nn3c(-c4cccc(Cl)c4)nnc3s2)cc1 , please.
output: 8

input: I have this compound here, Clc1ccccc1-c1nnc2sc(Nc3ccc(Br)cc3)nn12 , and I need its recorded Ratio.
output: 8

input: Quick one: Ratio for Clc1ccc(Nc2nn3c(-c4ccccc4)nnc3s2)cc1 ?
output: 8

Origin of values: ChEMBL document CHEMBL1926593
